# assay.notes: Oral bioavailability in Beagle dog at 5 mg/kg
# Format: ADME, organism-based, Canis lupus familiaris
# stated.conditions: in vivo
measurement.type: bioavailability (%)
Kindly answer with a numeric value in %, unit omitted.

Which bioavailability is listed for `Cc1sc(C)c(C(=O)NC2(c3ccc(C(=O)O)cc3)CC2)c1Cc1ccc(C(F)(F)F)cc1` ?
32

---

# assay.notes: Cmax bioavailability in cynomolgus monkey at 5 mg/kg, po
# Format: ADME, organism-based, Macaca fascicularis
# Parameters: dose 5 mg/kg, route oral
# stated.conditions: in vivo
measurement.type: Cmax (nM)
Write the answer as a number in nM, unit excluded.

Which Cmax is reported for this molecule? `Cc1sc(C)c(C(=O)NC2(c3ccc(C(=O)O)cc3)CC2)c1Cc1ccc(C(F)(F)F)cc1`
50

Each recorded value in this set is attributed to ChEMBL document CHEMBL1157608.
